Data provenance is PubChem BioAssay (NCI).

# Tested on: SNB-19 CNS
# assay notes: NCI tumour cell line growth inhibition, 48 h
A collection of molecules and their measured TGI

CNc1cc([N+](=O)[O-])ccc1C(=O)N1CCC[C@H]1CO ... > 100 µM
COC(=O)c1cc(CC2Cc3cc4c(cc3C2=O)CCC4)cc2c1CCC2 (stereo not given) ... > 100 µM
COCn1cc(C2=C(C)C(=O)C(C)=C(C)C2=O)cn1 ... > 100 µM
O=c1nc2sc3ccccc3c(=O)n2[nH]1 ... > 100 µM
CCOC(=O)C1=C(OC(OCC)C([Se]c2ccccc2)C(C)C)CCC1 (stereo not given) ... > 100 µM

Fill in TGI for record COC(=O)c1c(O)ccc(O)c1C(C(C)=O)C(C)=O > 100 µM

Output measured TGI for this item: COC(=O)[C@]12CC[C@@H](C)[C@H](C)[C@@H]1C1=CC[C@@H]3[C@@]4(C)C(C=O)=C[C@@](C)(CO)[C@@H]4[C@H](O)C[C@@]3(C)[C@]1(C)CC2 21.7 µM

Complete the entry with TGI for Cc1ccc(Sc2ccccc2C23OC(C)(C4C(=O)N(c5ccccc5)C(=O)C42)N(C)C3=O)cc1 (stereo not given) > 100 µM

Indicate the recorded TGI value for this molecule: COC(=O)C1(C(=O)OC)N=C(C)OC1c1ccccc1O (stereo not given) > 100 µM

Determine from records and report TGI for COc1ccc(OC)c(Nc2nc3nonc3nc2Nc2cccc(Br)c2)c1 19.1 µM

----------
Measured GI50, listed per entry.
# System: MCF7 breast
# assay notes: NCI tumour cell line growth inhibition, 48 h

Past entries and their recorded results:
CC1=CC(=O)N(c2cccc3c(N4C(=O)C=C(C)C4=O)cccc23)C1=O ... 3.95 µM
COc1cc(-c2nn(-c3ccc(NC(=O)Nc4cc(C(F)(F)F)cc(C(F)(F)F)c4)cc3)cc2-c2ccncc2)ccc1Cl ... 2.84 µM
Cc1sc(C(=O)c2cncnc2N[C@@H]2C[C@H](COS(N)(=O)=O)[C@@H](O)C2)cc1[C@@H]1NCCc2ccc(Cl)cc21 ... 0.0138 µM
Nc1ccccc1C#C/C=C\C#Cc1ccccc1C#CCO ... 7.87 µM
CCc1nc(C)cn1C(=O)OCc1nc2nc(Cl)nc(N3CCOCC3)c2[nH]1 ... 0.633 µM

Let me know recorded GI50 for NCCCNc1nc2ccccc2c2c(=O)c3cc(F)ccc3sc12 , thanks. 1.4 µM

For the compound Cn1ncc(C#N)c1-c1ccc2c(c1)CN([C@H](CN)Cc1cccc(F)c1)C2=O , report GI50. 0.812 µM

Dear colleague, please send me the reported GI50 for O=S(=O)(NC1=NCCN1C(=S)SN1CCn2c1nsc2=S)c1ccc(Oc2ccccc2)cc1 when you can. 25.7 µM

----------
Listed compounds paired with reported TGI
# System: HCT-15 colon
# assay notes: NCI tumour cell line growth inhibition, 48 h

Some solved entries appear below for comparison.
CC1(C)c2ccccc2N2C(c3ccccc3)=NOC21C (stereo not given) ... > 100 µM
Cc1ccc2[nH]c3c(c(=O)n(C)c(=O)n3C)c2c1 ... > 100 µM
O=C(NN1C(=O)CS(=O)(=O)C1c1ccc(Cl)c(Cl)c1)c1ccncc1 (stereo not given) ... > 100 µM

Indicate the recorded TGI value for this compound: CCN(CC)C(=O)CCn1cc(F)c(=O)[nH]c1=O > 100 µM

Return the recorded TGI value; entry: Cc1cc(C)c(NS(=O)c2cccc(C(F)(F)F)c2)c(C)c1 (stereo not given) > 100 µM

Complete the entry with TGI for CC1(C)OCC(CO)(CO)CO1 > 100 µM

Please report the measured TGI for COc1ccc(N2C(=O)C(Cl)C2c2cc3cc(Br)ccc3nc2Cl)cc1 (stereo not given) 11 µM

Annotate the compound C/C=C/c1cc2c(cc1O)CC[C@@H]1[C@@H]2CC[C@]2(C)[C@@H](O)CC[C@@H]12 with its measured TGI. 18 µM

Consider the compound Cn1nnc2c(C(N)=S)ncn2c1=O and give its recorded TGI. > 100 µM

Please report the measured TGI for c1ccc2sc(SSSc3nc4ccccc4s3)nc2c1 > 100 µM
